The values you see were collected from patent US11213516B2.

- EXPERIMENT NOTES: Plasma concentration after intravaginal administration of vaginal ring
- Format: in vivo, Cynomolgus monkeys
- TEST SETTINGS: female, cynomolgus monkey, plasma, other: intravaginal (vaginal ring), 240 mg, ring 240 mg free base; Phase 2 Group 1; 21 d; individual animals; read-out: Plasma concentration of Pritelivir free base
PROPERTY NAME: concentration at 21 d (ng/mL)
Quick note: give the figure in ng/mL, leave out the unit.

Enquiry: Item Cc1nc(N(C)C(=O)Cc2ccc(-c3ccccn3)cc2)sc1S(N)(=O)=O [Pritelivir free base] : provide concentration at 21 d
Return: 7.78

* * *

- EXPERIMENT NOTES: Plasma concentration after intravaginal administration of vaginal ring
- Type: in vivo, Cynomolgus monkeys
- TEST SETTINGS: female, cynomolgus monkey, plasma, other: intravaginal (vaginal ring), 40 mg, ring 40 mg free base; Phase 1 Group 1; 14 d; group mean; read-out: Plasma concentration of Pritelivir free base, Mean
- Procedure: The study was performed in four single dose phases with 28-day sampling period after Phases 1 and 2 (7-day washout period between doses). […] After suitable dilution, plasma and vaginal samples were analyzed on UPLC system Waters Acquity UPLC-HSS PFP column with 1.8 μm particles (100×2.1 mm) by gradient elution using 0.1% formic acid and methanol containing 0.1% formic acid. […] The samples were analyzed for their content of Pritelivir free base. […]
PROPERTY NAME: concentration at 14 d (ng/mL)
Quick note: give the figure in ng/mL, leave out the unit.

Enquiry: Item Cc1nc(N(C)C(=O)Cc2ccc(-c3ccccn3)cc2)sc1S(N)(=O)=O [Pritelivir free base] : provide concentration at 14 d
Return: 3.31

* * *

- EXPERIMENT NOTES: Plasma concentration after intravaginal administration of vaginal ring
- Format: in vivo, Cynomolgus monkeys
- TEST SETTINGS: female, cynomolgus monkey, plasma, other: intravaginal (vaginal ring), 40 mg, ring 40 mg free base; Phase 1 Group 1; 10 d; individual animals; read-out: Plasma concentration of Pritelivir free base
PROPERTY NAME: concentration at 10 d (ng/mL)
Quick note: give the figure in ng/mL, leave out the unit.

Enquiry: Item Cc1nc(N(C)C(=O)Cc2ccc(-c3ccccn3)cc2)sc1S(N)(=O)=O [Pritelivir free base] : provide concentration at 10 d
Return: 3.92

* * *

- EXPERIMENT NOTES: Plasma concentration after intravaginal administration of vaginal ring
- Format: in vivo, Cynomolgus monkeys
- TEST SETTINGS: female, cynomolgus monkey, plasma, other: intravaginal (vaginal ring), 40 mg, ring 40 mg free base; Phase 1 Group 1; 17 d; individual animals; read-out: Plasma concentration of Pritelivir free base
PROPERTY NAME: concentration at 17 d

Enquiry: Item Cc1nc(N(C)C(=O)Cc2ccc(-c3ccccn3)cc2)sc1S(N)(=O)=O [Pritelivir free base] : provide concentration at 17 d
Return: 2.64 ng/mL

* * *

- EXPERIMENT NOTES: Plasma concentration after intravaginal administration of vaginal ring
- Format: in vivo, Cynomolgus monkeys
- TEST SETTINGS: female, cynomolgus monkey, plasma, other: intravaginal (vaginal ring), 240 mg, ring 240 mg free base; Phase 2 Group 1; 7 d; individual animals; read-out: Plasma concentration of Pritelivir free base
PROPERTY NAME: concentration at 7 d (ng/mL)
Quick note: give the figure in ng/mL, leave out the unit.

Enquiry: Item Cc1nc(N(C)C(=O)Cc2ccc(-c3ccccn3)cc2)sc1S(N)(=O)=O [Pritelivir free base] : provide concentration at 7 d
Return: 16.4

* * *

- EXPERIMENT NOTES: Plasma concentration after intravaginal administration of vaginal ring
- Format: in vivo, Cynomolgus monkeys
- TEST SETTINGS: female, cynomolgus monkey, plasma, other: intravaginal (vaginal ring), 240 mg, ring 240 mg free base; Phase 2 Group 1; 0.0833 d; individual animals; read-out: Plasma concentration of Pritelivir free base
PROPERTY NAME: concentration at 0.0833 d (ng/mL)
Quick note: give the figure in ng/mL, leave out the unit.

Enquiry: Item Cc1nc(N(C)C(=O)Cc2ccc(-c3ccccn3)cc2)sc1S(N)(=O)=O [Pritelivir free base] : provide concentration at 0.0833 d
Return: 4.41

* * *

- EXPERIMENT NOTES: Plasma concentration after intravaginal administration of vaginal ring
- Format: in vivo, Cynomolgus monkeys
- TEST SETTINGS: female, cynomolgus monkey, plasma, other: intravaginal (vaginal ring), 240 mg, ring 240 mg free base; Phase 2 Group 1; 0.0833 d; group mean; read-out: Plasma concentration of Pritelivir free base, Mean
PROPERTY NAME: concentration at 0.0833 d
Returns: string containing the number followed by the unit.

Enquiry: Item Cc1nc(N(C)C(=O)Cc2ccc(-c3ccccn3)cc2)sc1S(N)(=O)=O [Pritelivir free base] : provide concentration at 0.0833 d
Return: 3.68 ng/mL

* * *

- EXPERIMENT NOTES: Plasma concentration after intravaginal administration of vaginal ring
- Assay type: in vivo, Cynomolgus monkeys
- TEST SETTINGS: female, cynomolgus monkey, plasma, other: intravaginal (vaginal ring), 240 mg, ring 240 mg free base; Phase 2 Group 1; 14 d; individual animals; read-out: Plasma concentration of Pritelivir free base
PROPERTY NAME: concentration at 14 d (ng/mL)
Quick note: give the figure in ng/mL, leave out the unit.

Enquiry: Item Cc1nc(N(C)C(=O)Cc2ccc(-c3ccccn3)cc2)sc1S(N)(=O)=O [Pritelivir free base] : provide concentration at 14 d
Return: 9.48

* * *

- EXPERIMENT NOTES: Plasma concentration after intravaginal administration of vaginal ring
- Format: in vivo, Cynomolgus monkeys
- TEST SETTINGS: female, cynomolgus monkey, plasma, other: intravaginal (vaginal ring), 40 mg, ring 40 mg free base; Phase 1 Group 1; 7 d; individual animals; read-out: Plasma concentration of Pritelivir free base
PROPERTY NAME: concentration at 7 d (ng/mL)
Quick note: give the figure in ng/mL, leave out the unit.

Enquiry: Item Cc1nc(N(C)C(=O)Cc2ccc(-c3ccccn3)cc2)sc1S(N)(=O)=O [Pritelivir free base] : provide concentration at 7 d
Return: 3.55

* * *

- EXPERIMENT NOTES: Plasma concentration after intravaginal administration of vaginal ring
- Type: in vivo, Cynomolgus monkeys
- TEST SETTINGS: female, cynomolgus monkey, plasma, other: intravaginal (vaginal ring), 240 mg, ring 240 mg free base; Phase 2 Group 1; 28 d; individual animals; read-out: Plasma concentration of Pritelivir free base
PROPERTY NAME: concentration at 28 d (ng/mL)
Quick note: give the figure in ng/mL, leave out the unit.

Enquiry: Item Cc1nc(N(C)C(=O)Cc2ccc(-c3ccccn3)cc2)sc1S(N)(=O)=O [Pritelivir free base] : provide concentration at 28 d
Return: 12.7

* * *

- EXPERIMENT NOTES: Plasma concentration after intravaginal administration of vaginal ring
- Format: in vivo, Cynomolgus monkeys
- TEST SETTINGS: female, cynomolgus monkey, plasma, other: intravaginal (vaginal ring), 40 mg, ring 40 mg free base; Phase 1 Group 1; 24 d; individual animals; read-out: Plasma concentration of Pritelivir free base
PROPERTY NAME: concentration at 24 d (ng/mL)
Quick note: give the figure in ng/mL, leave out the unit.

Enquiry: Item Cc1nc(N(C)C(=O)Cc2ccc(-c3ccccn3)cc2)sc1S(N)(=O)=O [Pritelivir free base] : provide concentration at 24 d
Return: 3.21

* * *

- EXPERIMENT NOTES: Plasma concentration after intravaginal administration of vaginal ring
- Assay type: in vivo, Cynomolgus monkeys
- TEST SETTINGS: female, cynomolgus monkey, plasma, other: intravaginal (vaginal ring), 40 mg, ring 40 mg free base; Phase 1 Group 1; 0.167 d; group mean; read-out: Plasma concentration of Pritelivir free base, Mean
PROPERTY NAME: concentration at 0.167 d

Enquiry: Item Cc1nc(N(C)C(=O)Cc2ccc(-c3ccccn3)cc2)sc1S(N)(=O)=O [Pritelivir free base] : provide concentration at 0.167 d
Return: 5.61 ng/mL

* * *

- EXPERIMENT NOTES: Plasma concentration after intravaginal administration of vaginal ring
- Format: in vivo, Cynomolgus monkeys
- TEST SETTINGS: female, cynomolgus monkey, plasma, other: intravaginal (vaginal ring), 240 mg, ring 240 mg free base; Phase 2 Group 1; 0.167 d; group mean; read-out: Plasma concentration of Pritelivir free base, Mean
PROPERTY NAME: concentration at 0.167 d (ng/mL)
Quick note: give the figure in ng/mL, leave out the unit.

Enquiry: Item Cc1nc(N(C)C(=O)Cc2ccc(-c3ccccn3)cc2)sc1S(N)(=O)=O [Pritelivir free base] : provide concentration at 0.167 d
Return: 4.58

* * *

- EXPERIMENT NOTES: Plasma concentration after intravaginal administration of vaginal ring
- Type: in vivo, Cynomolgus monkeys
- TEST SETTINGS: female, cynomolgus monkey, plasma, other: intravaginal (vaginal ring), 40 mg, ring 40 mg free base; Phase 1 Group 1; 0.0417 d; group mean; read-out: Plasma concentration of Pritelivir free base, Mean
PROPERTY NAME: concentration at 0.0417 d (ng/mL)
Quick note: give the figure in ng/mL, leave out the unit.

Enquiry: Item Cc1nc(N(C)C(=O)Cc2ccc(-c3ccccn3)cc2)sc1S(N)(=O)=O [Pritelivir free base] : provide concentration at 0.0417 d
Return: 3.43
